Test system: LXRa:RXRa (NR concentration 270 nM, RXRa partner concentration 90 nM)
PROTOCOL DETAILS: PBM binding z-score (relative to random genomic background probes); higher = stronger binding; sequences stand for … in GC…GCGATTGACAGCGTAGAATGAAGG
VALUE TYPE: PBM binding z-score
One number for each entry.

The examples below pair each entry with its known result.
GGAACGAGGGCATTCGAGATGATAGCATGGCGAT: 0.444
CCTAATAGTTGACCATAAGGGCAACCGAAGCTCG: 0.486
CCGACTGGGGCAAGGTTTCCATAACGCACAGCCA: -0.322
ACTATTAGTTGACTTAGAGCAACCGATACGACGC: 0.0474
TGAATGAGGTTAGAGATCAGGGAACGTGGCGTCG: 0.556
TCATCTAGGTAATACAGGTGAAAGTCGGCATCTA: 0.831
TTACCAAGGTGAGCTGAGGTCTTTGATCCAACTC: 0.0694
ACTAGCAGGCCAAGGGTCACACAAGATTAGTCCG: 3.18

// batch mode: one PBM binding z-score value per listed entry
1. CAGACTAGGTCAGGGCCAGTATAGGAGGAACGTT
2. ATCTCTAGGTAACAAGTTCAGTCAAAGAGAGGAC

Result:
0.664
0.77

// batch mode: one PBM binding z-score value per listed entry
1. CGAACTAGGTCACCGGAAGGTCAAAGTCCGCATG
2. CAAACTAGGTCACCGGAAGCTCAAAGTCCGCATG

Result:
1. 5.95
2. 2.93
